Tested on: L1210 leukemia ip in BDF1 mice, survival T/C
assayNotes: NCI In Vivo Anticancer Drug Screen. Data for tumor model L1210 Leukemia (intraperitoneal) in B6D2F1 (BDF1) mice
conditionsUsed: endpoint: mean survival time; dose: 100.0 mg/kg/injection; schedule: Q04DX002 (ip); vehicle: Klucel (hydroxypropylcellulose) (HPC); higher = longer survival
Toxic doses and inconclusive results are not listed.
resultType: T/C

1. C/C=C\C=C\C(=O)O :: 97 % of control
2. CC(=O)n1c(O)c(N=Nc2ccc([N+](=O)[O-])cc2[N+](=O)[O-])c2cc(Br)ccc21 :: 92 % of control
3. O=C1c2cccc3cc([N+](=O)[O-])cc(c23)C(=O)N1CCc1ccccn1 :: 94 % of control
4. CCCCCCCCOC(=O)c1ccc2c(c1)Nc1cc3ccccc3cc1N2 :: 105 % of control
5. Cc1cccc(C(=O)OCc2ccccc2CN2CCCCC2)c1 :: 105 % of control

# ---- query molecule ----
Fill blank: measured T/C of the molecule N#Cc1cccc2c(/C=N\NC(N)=S)nccc12 is ____.
106 % of control

* * *

System: L1210 leukemia ip in BDF1 mice, survival T/C
assayNotes: NCI In Vivo Anticancer Drug Screen. Data for tumor model L1210 Leukemia (intraperitoneal) in B6D2F1 (BDF1) mice
conditionsUsed: endpoint: mean survival time; dose: 400.0 mg/kg/injection; schedule: Q01DX001 (ip); vehicle: saline; higher = longer survival
Toxic doses and inconclusive results are not listed.
Assignment: determine reported T/C for the given compounds.

The following compounds have reported results that may help.
1) Cn1cc(N)c(=O)[nH]c1=O :: 103 % of control
2) CC(=O)Oc1ccc2nccc(C)c2c1 :: 100 % of control
3) Cc1[nH]c2ccccc2c1C(=O)Cc1ccc(Cl)c(Cl)c1 :: 101 % of control
4) CC(C)=CCC(C)c1ccccn1 (stereo not drawn) :: 97 % of control
5) O=C1C(c2[nH]c3cc4c(cc3c2O)OCO4)=Nc2cc3c(cc21)OCO3 :: 94 % of control
6) NNC(=O)C1CC2C(=O)NNC(=O)C2C1C(=O)O (stereo not drawn) :: 113 % of control
7) Cc1ccc(S(=O)(=O)N2CCc3ccccc3C(=O)C2)cc1 :: 94 % of control
8) CCCCCCCCCCCCCC[As](=O)(O)CCCCCCCCCCCCCC :: 95 % of control
9) CC(=O)C1OC1(C)C (stereo not drawn) :: 104 % of control
10) CCSCN1CCN(CSCC)C(C)C1 (stereo not drawn) :: 112 % of control

Your task in this section: give T/C for each listed record.
1. CCCCSc1n[nH]c(=O)nc1N
2. CCCC[N+](C)(C)CC[N+](C)(C)CCCC
3. C=CC1CN2CCC1CC2C(=O)c1ccnc2ccc(OC)cc12 (stereo not drawn)

98 % of control
102 % of control
101 % of control

* * *

System: L1210 leukemia ip in BDF1 mice, survival T/C
assayNotes: NCI In Vivo Anticancer Drug Screen. Data for tumor model L1210 Leukemia (intraperitoneal) in B6D2F1 (BDF1) mice
conditionsUsed: endpoint: mean survival time; dose: 50.0 mg/kg/injection; schedule: Q01DX009 (ip); vehicle: Klucel (hydroxypropylcellulose) (HPC); higher = longer survival
Toxic doses and inconclusive results are not listed.
Assignment: determine reported T/C for the given compounds.

1) CCCCC/C(C)=N\Nc1ccccn1 :: 104 % of control
2) C[As](C)(=S)[As](C)(C)=S :: 87 % of control
3) Oc1ccc(CCNCc2cc3c(cc2Br)OCO3)cc1 :: 101 % of control

# ---- query compound ----
Fill blank: measured T/C of the compound CC(O)C#CC(C)O (centres undefined) is ____.
103 % of control

* * *

Tested on: L1210 leukemia ip in BDF1 mice, survival T/C
assayNotes: NCI In Vivo Anticancer Drug Screen. Data for tumor model L1210 Leukemia (intraperitoneal) in B6D2F1 (BDF1) mice
conditionsUsed: endpoint: mean survival time; dose: 6.25 mg/kg/injection; schedule: Q04DX003 (ip); vehicle: saline; higher = longer survival
Toxic doses and inconclusive results are not listed.
resultType: T/C

The following compounds have reported results that may help.
1) CCC(C)[Se][Se]C(C)CC (stereo not given) :: 97 % of control
2) c1cc(-n2nnc3cnccc32)ccn1 :: 100 % of control
3) CCN1c2ccccc2C(Cl)(c2ccc(N(C)C)cc2)c2ccccc21 :: 95 % of control
4) [Cl][Ni].[NH-]C(Cc1ccccc1)C(=O)O (stereo not given) :: 98 % of control

# ---- query compound ----
Which measured T/C belongs to ClCCCN1CCCCC1CCl (stereo not given) , tested on L1210 leukemia ip in BDF1 mice, survival T/C?
111 % of control

* * *

Tested on: L1210 leukemia ip in BDF1 mice, survival T/C
assayNotes: NCI In Vivo Anticancer Drug Screen. Data for tumor model L1210 Leukemia (intraperitoneal) in B6D2F1 (BDF1) mice
conditionsUsed: endpoint: mean survival time; dose: 100.0 mg/kg/injection; schedule: Q04DX003 (ip); vehicle: saline with Tween-80; higher = longer survival
Toxic doses and inconclusive results are not listed.
resultType: T/C

1. CC(=S)Nc1ccc2ccccc2c1 :: 101 % of control

Your task in this section: give T/C for each listed record.
1. CC(=O)OCC(=O)c1cc(C)n(C)c(=O)c1CN1C(=O)c2ccccc2C1=O
2. Cn1ccc2cc(Br)ccc21
3. Nc1ccc(S(=O)(=O)CC(=O)N2CCOCC2)cc1
4. c1ccc(-c2nnc(-c3ccc4ccc5cccnc5c4n3)nc2-c2ccccc2)cc1
5. C[Si](C)(C)CCc1ccccc1
6. CC(C)=CCC(=O)Oc1ccccc1C(=O)O

1. 97 % of control
2. 102 % of control
3. 100 % of control
4. 93 % of control
5. 98 % of control
6. 92 % of control

* * *

System: L1210 leukemia ip in BDF1 mice, survival T/C
assayNotes: NCI In Vivo Anticancer Drug Screen. Data for tumor model L1210 Leukemia (intraperitoneal) in B6D2F1 (BDF1) mice
conditionsUsed: endpoint: mean survival time; dose: 400.0 mg/kg/injection; schedule: Q04DX003 (ip); vehicle: saline; higher = longer survival
Experimental: The antitumor activity of compounds was measured in mice bearing transplantable tumors. Survival or tumor size were measured and the results are expressed as the measurement made in the treated group (T) divided by the measurement made in the vehicle treated control group (C). The tumor model used in this assay is L1210 Leukemia (intraperitoneal) in B6D2F1 (BDF1) mice
Toxic doses and inconclusive results are not listed.
resultType: T/C

1) CC12OC3C4C(=O)OC1C1OC4(C)C3C(=O)OC12 :: 95 % of control
2) Cc1cc([N+](=O)[O-])c(C)c([N+](=O)[O-])c1Cl :: 98 % of control
3) COC(=O)c1ccc(SCCCN2CCOCC2)cc1 :: 100 % of control

Your task in this section: give T/C for each listed record.
1. CC(=O)OCC(CO)(CO)CO
2. OCC(Cl)(Cl)Cl

1: 92 % of control; 2: 107 % of control

* * *

Assignment: determine reported T/C for the given compounds.
System: L1210 leukemia ip in BDF1 mice, survival T/C
assayNotes: NCI In Vivo Anticancer Drug Screen. Data for tumor model L1210 Leukemia (intraperitoneal) in B6D2F1 (BDF1) mice
conditionsUsed: endpoint: mean survival time; dose: 200.0 mg/kg/injection; schedule: Q01DX009 (ip); vehicle: saline with Tween-80; higher = longer survival
Inconclusive results and toxic doses are left out.

1. CCOc1ccc(Br)cc1/C=N/NS(=O)(=O)c1ccc(C)cc1 :: 97 % of control
2. S=c1ncn(-c2ccccc2)[nH]1 :: 95 % of control

Your task in this section: give T/C for each listed record.
1. Cc1cc(Cl)ccc1NC(=O)COc1ccc(Cl)cc1Cl
2. OCC1OCCO1
3. O=C(CNC(=O)Nc1cccc(Cl)c1)N/N=C/c1cccc([N+](=O)[O-])c1
4. Cc1nc(=S)[nH][nH]1
5. S=C(NCCNC(=S)Nc1ccccc1)Nc1ccccc1
6. C=C(C)C1CCC(C)CC1O (stereo not drawn)

1. 96 % of control
2. 93 % of control
3. 98 % of control
4. 122 % of control
5. 92 % of control
6. 108 % of control

* * *

System: L1210 leukemia ip in BDF1 mice, survival T/C
assayNotes: NCI In Vivo Anticancer Drug Screen. Data for tumor model L1210 Leukemia (intraperitoneal) in B6D2F1 (BDF1) mice
conditionsUsed: endpoint: mean survival time; dose: 100.0 mg/kg/injection; schedule: Q01DX001 (ip); vehicle: acetone; higher = longer survival
Toxic doses and inconclusive results are not listed.
Assignment: determine reported T/C for the given compounds.

1. COc1ccc(CCCCCl)cc1 :: 95 % of control
2. CC1=CN(C)C(=O)CC1 :: 96 % of control

Your task in this section: give T/C for each listed record.
1. C1=NN=C2C=C3CCc4ccccc4C3CC12 (centres undefined)
2. CCCCSc1n[nH]c(=O)nc1SC

1: 93 % of control; 2: 104 % of control
